Molecular target: human DGAT1 (Homo sapiens, UniProt O75907)
Sequence (O75907 1-488): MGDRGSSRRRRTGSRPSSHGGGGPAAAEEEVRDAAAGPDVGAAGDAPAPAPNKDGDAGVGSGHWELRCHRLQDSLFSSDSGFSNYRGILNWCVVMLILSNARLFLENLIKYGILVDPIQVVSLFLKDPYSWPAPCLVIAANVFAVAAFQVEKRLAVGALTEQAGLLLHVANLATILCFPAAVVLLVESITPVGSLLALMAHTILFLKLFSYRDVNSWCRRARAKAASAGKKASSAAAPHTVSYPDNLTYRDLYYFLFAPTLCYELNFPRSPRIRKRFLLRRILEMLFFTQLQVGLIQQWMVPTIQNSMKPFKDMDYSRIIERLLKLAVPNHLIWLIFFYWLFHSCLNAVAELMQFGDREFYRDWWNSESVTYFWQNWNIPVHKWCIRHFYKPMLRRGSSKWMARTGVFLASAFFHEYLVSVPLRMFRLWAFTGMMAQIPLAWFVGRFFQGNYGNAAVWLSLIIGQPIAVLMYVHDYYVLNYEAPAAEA
Parameter Measured: IC50

Answered cases to consult:
Molecule	IC50
Cc1nc(N)c2c(n1)OC(C)(C)C(c1ccc([C@H]3CC[C@H](CNC(=O)C(C)(C)CO)CC3)cc1)=N2 [Example 2-139]	0.01 to 0.1 µM
CC1(C)Oc2ncnc(N)c2N=C1c1ccc([C@H]2CC[C@H](CNC(=O)CO)CC2)cc1 [Example 2-91]	0.01 to 0.1 µM
CC1(C)Oc2ncnc(N)c2N=C1c1ccc([C@H]2CC[C@H](CN3CCC(O)CC3)CC2)cc1 [Example 2-225]	> 0.1 µM
CC1(C)Oc2ncnc(N)c2N=C1c1ccc([C@H]2CC[C@H](C(N)=O)CC2)cc1 [Example 2-204]	0.01 to 0.1 µM
CCOC(=O)N1CCN(c2ccc(C3=Nc4c(N)ncnc4OC3(C)C)cc2)CC1 [Example 4-5]	> 0.1 µM

Hey, quick one: what's IC50 for each of these?
1. Cc1nc(N)c2c(n1)OC(C)(C)C(c1ccc([C@H]3CC[C@H](CCc4nc(=O)on4C)CC3)cc1)=N2 [Example 2-197]
2. CC1(C)Oc2ncnc(N)c2N=C1c1ccc([C@H]2CC[C@H](CN3CCC(Cc4ccccc4)CC3)CC2)cc1 [Example 2-228]
3. CC1(C)Oc2ncnc(N)c2N=C1c1ccc([C@H]2CC[C@H](C(=O)N3CCC(C(=O)O)CC3)CC2)cc1 [Example 2-207]

1: 0.01 to 0.1 µM; 2: > 0.1 µM; 3: 0.01 to 0.1 µM

Below are some molecules; for each one, tell me its IC50.
1. Cc1nc(N)c2c(n1)OC(C)(C)C(c1ccc([C@H]3CC[C@H](CC(=O)N(C)CC(N)=O)CC3)cc1)=N2 [Example 2-144]
2. CCC(C(=O)O)C1CCC(c2ccc(C3=Nc4c(N)nc(C(F)(F)F)nc4OC3(C)C)cc2)CC1 (centres unmarked) [Example 10-28]

["0.01 to 0.1 µM", "< 0.01 µM"]

// for each molecule below, give its IC50
1. CC1(C)Oc2ncnc(N)c2N=C1c1ccc([C@H]2CC[C@H](CCN3CCCCC3)CC2)cc1 [Example 2-82]
2. Cc1nc(N)c2c(n1)OC(C)(C)C(c1ccc([C@H]3CC[C@H](CC(=O)NC(C)(C)CO)CC3)cc1)=N2 [Example 2-135]
3. Nc1ncnc2c1N=C(c1ccc(C(F)(F)F)cc1)CO2 [Example 1-8]

["> 0.1 µM", "0.01 to 0.1 µM", "> 0.1 µM"]

* * *

Can you tell me melting point for the items I'm about to list?

Smi	Reported Result
Cc1nc(N)c2c(n1)OC(C)(C)C(c1ccc([C@H]3CC[C@H](CCC(=O)NS(C)(=O)=O)CC3)cc1)=N2	> 250 °C
Nc1ncnc2c1N=C(c1cccc(Br)c1)CO2	> 220 °C
CC1(C)Oc2ncnc(N)c2N=C1c1ccc([C@H]2CC[C@H](Cc3nn[nH]n3)CC2)cc1	> 250 °C

Entry "Cc1nc(N)c2c(n1)OC(C)(C)C(c1ccc([C@H]3CC[C@H](CNC(=O)CCO)CC3)cc1)=N2" — recorded melting point = 223 to 224 °C

* * *

Answer each item with its documented melting point.

Hi! Can you tell me melting point for each of these compounds?
1. Nc1ncnc2c1N=C(c1ccc(C(F)(F)F)cc1)CO2
2. CC1(C)Oc2ncnc(N)c2N=C1c1ccc([C@H]2CC[C@H](CCC(=O)N3CCC(O)CC3)CC2)cc1

> 220 °C
200 to 202 °C

* * *

Observed IC50 for human DGAT1 (Homo sapiens), reported per entry below.

Molecule	Parameter Measured	Reported Result
Cc1nc(N)c2c(n1)OC(C)(C)C(c1ccc([C@H]3CC[C@H](CN4CCOC4=O)CC3)c(Cl)c1)=N2	IC50	> 0.1 µM
Nc1nc(N)c2c(n1)OCC(c1ccc(Br)cc1)=N2	IC50	> 0.1 µM
Cc1nc(N)c2c(n1)OC(C)(C)C(c1ccc([C@H]3CC[C@H](CNC(=O)C(O)C(C)(C)CO)CC3)cc1)=N2 (stereo partly drawn)	IC50	0.01 to 0.1 µM

Provide each entry's IC50 from the list below.
1. CC1(C)Oc2nc(C(F)(F)F)nc(N)c2N=C1c1ccc([C@H]2CC[C@H](CNC(N)=O)CC2)c(Cl)c1
2. CC1(C)Oc2ncnc(N)c2N=C1c1ccc(C2CCC(=CC(=O)NCc3ccccc3)CC2)cc1 (stereo not drawn)
3. Cc1nc(N)c2c(n1)OC(C)(C)C(c1ccc([C@H]3CC[C@H](CC(=O)O)CC3)c(N3CCCC3=O)c1)=N2
4. CC1(C)Oc2ncnc(N)c2N=C1c1ccc([C@H]2CC[C@H](C(=O)N3CCCC3C(=O)O)CC2)cc1 (stereo partly drawn)
5. CC1(C)Oc2ncnc(N)c2N=C1c1ccc2c(c1)CCC21CCC(C(C)(C)C(=O)O)CC1 (stereo not drawn)
6. CC1(C)Oc2ncnc(N)c2N=C1c1ccc([C@H]2CC[C@H](CCNC(=O)CO)CC2)cc1

0.01 to 0.1 µM
0.01 to 0.1 µM
> 0.1 µM
0.01 to 0.1 µM
< 0.01 µM
0.01 to 0.1 µM

Please state, for each entry, its recorded IC50.
1. Cc1nc(N)c2c(n1)OC(C)(C)C(c1ccc([C@H]3CC[C@H](c4nn[nH]n4)CC3)cc1)=N2
2. CC(C)(C)OC(=O)N1CCN(C[C@H]2CC[C@H](c3ccc(C4=Nc5c(N)ncnc5OC4(C)C)cc3)CC2)CC1
3. CC1(C)Oc2ncnc(N)c2NC1c1ccc([C@H]2CC[C@H](CO)CC2)cc1 (stereo partly drawn)
4. CC1(C)Oc2ncnc(N)c2N=C1c1ccc([C@H]2CC[C@H](C(=O)NCCO)CC2)cc1
5. CC1(C)Oc2ncnc(N)c2N=C1c1ccc([C@H]2CC[C@H](CCC(=O)N3CCC[C@H]3CO)CC2)cc1

< 0.01 µM
0.01 to 0.1 µM
> 0.1 µM
0.01 to 0.1 µM
0.01 to 0.1 µM

Reading of IC50 for CC1(C)Oc2ncnc(N)c2N=C1c1ccc2c(c1)COC21CCC(CC(=O)O)CC1 (stereo not drawn) with human DGAT1 (Homo sapiens): 0.01 to 0.1 µM

* * *

Please respond with reported melting point for every item in the list.

Smi	Reported Result
Cc1nc(N)c2c(n1)OC(C)(C)C(c1ccc([C@H]3CC[C@H](Cc4noc(=O)[nH]4)CC3)c(Cl)c1)=N2	> 282 °C
CC1(C)Oc2nc(C(F)(F)F)nc(N)c2N=C1c1ccc([C@H]2CC[C@H](CNC(=O)CO)CC2)c(Cl)c1	213 to 216 °C
CCn1c(C[C@H]2CC[C@H](c3ccc(C4=Nc5c(N)nc(C)nc5OC4(C)C)cc3)CC2)n[nH]c1=O	> 250 °C
CC(C)(C)OC(=O)N1CCN(C[C@H]2CC[C@H](c3ccc(C4=Nc5c(N)ncnc5OC4(C)C)cc3)CC2)CC1	171 to 172 °C
CC1(C)Oc2ncnc(N)c2N=C1c1ccc([C@H]2CC[C@H](CCN3CCCCC3)CC2)cc1	209 to 210 °C
CC1(C)Oc2ncnc(N)c2N=C1c1ccc([C@H]2CC[C@H](CN3CCCC3)CC2)cc1	160 to 162 °C

Continue with the compound presented below.
"CC1(C)Oc2ncnc(N)c2N=C1c1ccc([C@H]2CC[C@H](CN3CCN(C(=O)CO)CC3)CC2)cc1" has a reported melting point of 205 to 206 °C

* * *

Parameter Measured: melting point

Solved entries (count: 6):
Compound	melting point
CC1(C)Oc2ncnc(N)c2N=C1c1ccc([C@H]2CC[C@H](CC(=O)N3CCCC3)CC2)cc1	232 to 233 °C
Cc1nc(N)c2c(n1)OC(C)(C)C(c1ccc([C@H]3CC[C@H](C(=O)O)CC3)cc1)=N2	> 250 °C
CC1(C)Oc2ncnc(N)c2N=C1c1ccc([C@H]2CC[C@H](CCN3CCN(Cc4ccccc4)CC3)CC2)cc1	175 to 176 °C
CCCNC(=O)C[C@H]1CC[C@H](c2ccc(C3=Nc4c(N)ncnc4OC3(C)C)cc2)CC1	214 to 215 °C
CC1(C)Oc2ncnc(N)c2N=C1c1ccc(O)cc1	245 to 246 °C
CC1(C)Oc2nc(C(F)(F)F)nc(N)c2N=C1c1ccc([C@H]2CC[C@H](CC(=O)O)CC2)c(Cl)c1	247 to 248 °C

Please look at the items below and tell me melting point for each one, in order.
1. O=c1[nH]c2ncnc3c2n1C(c1ccc(Br)cc1)CO3 (centres unmarked)
2. CC1(C)Oc2ncnc(N)c2N=C1c1ccc([C@H]2CC[C@H](CN3CCC(Cc4ccccc4)CC3)CC2)cc1

["> 220 °C", "119 to 120 °C"]
